Each recorded value in this set is attributed to ChEMBL document CHEMBL1153985.

- Assay overview: Protein binding in rat plasma at 1 mg/kg
- Assay type: ADME, organism-based
- Set-up: dose 1 mg/kg
- Conditions: read-out: PPB (converted)
Measurement type: fraction unbound

Given the entry OCCOCCNc1cc2c(NC3Cc4ccccc4C3)ncnc2cn1 , report its measured fraction unbound. 0.19

====

Below, each entry is listed alongside its reported IC50.
- Experimental target: Metabotropic glutamate receptor 1 (Homo sapiens)
- Sequence (Q13255 whole entry): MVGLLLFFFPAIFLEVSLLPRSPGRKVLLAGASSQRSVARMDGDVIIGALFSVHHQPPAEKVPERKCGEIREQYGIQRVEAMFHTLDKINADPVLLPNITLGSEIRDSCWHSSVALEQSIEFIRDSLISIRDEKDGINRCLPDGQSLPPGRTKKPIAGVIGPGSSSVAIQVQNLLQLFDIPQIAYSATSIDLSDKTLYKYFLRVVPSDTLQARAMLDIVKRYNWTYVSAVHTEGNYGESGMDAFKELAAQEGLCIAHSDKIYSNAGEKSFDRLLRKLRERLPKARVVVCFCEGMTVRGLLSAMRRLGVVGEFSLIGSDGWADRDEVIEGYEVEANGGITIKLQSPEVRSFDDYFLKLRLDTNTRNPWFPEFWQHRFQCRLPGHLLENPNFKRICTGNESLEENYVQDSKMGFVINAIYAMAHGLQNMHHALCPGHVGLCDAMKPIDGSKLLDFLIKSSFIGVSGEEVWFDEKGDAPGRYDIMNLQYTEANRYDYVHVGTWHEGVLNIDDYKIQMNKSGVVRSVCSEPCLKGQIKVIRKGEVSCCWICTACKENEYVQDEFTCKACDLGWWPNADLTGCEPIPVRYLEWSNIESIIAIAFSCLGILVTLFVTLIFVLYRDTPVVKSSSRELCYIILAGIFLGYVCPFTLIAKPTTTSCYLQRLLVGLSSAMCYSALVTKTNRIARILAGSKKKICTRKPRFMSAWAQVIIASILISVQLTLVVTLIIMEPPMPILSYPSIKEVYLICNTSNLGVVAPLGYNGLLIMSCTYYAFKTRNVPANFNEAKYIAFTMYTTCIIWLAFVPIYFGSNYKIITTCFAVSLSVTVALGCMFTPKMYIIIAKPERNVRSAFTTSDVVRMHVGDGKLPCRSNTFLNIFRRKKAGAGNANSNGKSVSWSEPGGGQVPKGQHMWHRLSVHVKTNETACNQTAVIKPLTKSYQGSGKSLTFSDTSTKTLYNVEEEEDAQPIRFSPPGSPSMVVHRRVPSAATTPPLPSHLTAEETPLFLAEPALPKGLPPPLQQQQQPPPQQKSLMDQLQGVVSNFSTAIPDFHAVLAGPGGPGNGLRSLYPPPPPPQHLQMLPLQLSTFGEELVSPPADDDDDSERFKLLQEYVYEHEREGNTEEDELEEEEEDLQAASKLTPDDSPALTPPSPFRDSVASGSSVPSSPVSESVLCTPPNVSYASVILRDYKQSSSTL
- Assay overview: Antagonist activity at mGluR1

* Nc1cc2c(Nc3ccc(F)c(Cl)c3)ncnc2cn1 | 300 nM

Please look at the following compound next.
Given the entry OCCOCCNc1cc2c(NC3Cc4ccccc4C3)ncnc2cn1 , report its measured IC50. 3 nM
